Assay: LC/MS of blood plasma sample: time from blood collection to cooling of blood (Table E)
Type: physicochemical, human
Design: key: detection intensity relative to ≤1 min to cooling = 1
Conditions: different from individual to individual, individuals with increase, relative to 1 at 1 minute or less, collection to cooling 5 minutes
MEASURED QUANTITY: Rate of increase or decrease (first value, increase)

{"columns": ["COMPOUND", "REPORTED VALUE"],
 "data": [
  ["Nc1ncnc2c1ncn2[C@@H]1O[C@H](COP(=O)(O)O)[C@@H](O)[C@H]1O [Adenosine monophosphate]", 1.43],
  ["NC(=O)NC1NC(=O)NC1=O (stereo not drawn)", 1.57],
  ["NCCc1c[nH]c2ccc(O)cc12", 1.62]
]}

----------
Test: GC/MS of blood plasma sample: time from blood collection to cooling of blood (Table B)
Assay type: physicochemical, human
Set-up: key: detection intensity relative to 1 at cooling time ≤1 min
Conditions: detection intensity relative to 1 at 1 minute or less, blood collection to cooling 5 minutes
MEASURED QUANTITY: Rate of increase or decrease

{"columns": ["COMPOUND", "REPORTED VALUE"],
 "data": [
  ["O[C@@H]1[C@@H](O)[C@@H]2OC[C@@H](O2)[C@H]1O [1,6-Anhydroglucose]", 0.62],
  ["CCC(=O)C(=O)O", 0.67],
  ["CC(=O)NCCCC[C@H](N)C(=O)O", 0.61]
]}

----------
Assay: LC/MS of serum sample: number of times of freezing and thawing (Table M)
Type: physicochemical, human
Parameters: key: detection intensity relative to 1 at 2 freeze-thaw cycles
Details: 6 times of freezing and thawing; detection intensity relative to 1 at 2 times

{"columns": ["MOLECULE", "Rate of increase or decrease"],
 "data": [
  ["C[C@H](CCC(=O)O)[C@H]1CC[C@H]2[C@@H]3[C@H](O)C[C@@H]4C[C@H](O)CC[C@]4(C)[C@H]3C[C@H](O)[C@]12C [Cholic acid]", 0.57],
  ["NC(=O)NCCC[C@H](N)C(=O)O [Citrulline]", 0.62],
  ["CN(C)C(N)=NCCC[C@H](N)C(=O)O [Asymmetric dimethylarginine]", 0.69],
  ["Nc1nc2c(ncn2[C@@H]2O[C@H](CO)[C@@H](O)[C@H]2O)c(=O)[nH]1 [Guanosine]", 0.62],
  ["N[C@@H](CO)C(=O)O [Serine, serine]", 0.66],
  ["NCC(=O)O [Glycine]", 0.69]
]}

----------
Reported values of Rate of increase or decrease for individual entries
Experiment: GC/MS of serum sample: number of times of freezing and thawing (Table I)
Assay type: physicochemical, human
Parameters: key: detection intensity relative to 2 freeze-thaw cycles = 1
Conditions: detection intensity relative to 1 at 2 times; serum, GC/MS; freezing and thawing 4 times

{"columns": ["MOLECULE", "Rate of increase or decrease"],
 "data": [
  ["O=C(O)CCCc1ccccc1 [Phenylbutyric acid]", 2.61],
  ["Nc1ncnc2c1ncn2[C@@H]1O[C@H](CO)[C@@H](O)[C@H]1O [Adenosine]", 0.36],
  ["O=C[C@H](O)[C@H](O)[C@H](O)CO [Ribose]", 1.68],
  ["CCCCCCCC/C=C\\CCCCCCCC(N)=O [Oleamide]", 2.08],
  ["CC(C)(CO)[C@@H](O)C(=O)NCCC(=O)O [Pantothenic acid]", 1.39],
  ["O=C(O)C(=O)O [Oxalic acid]", 0.61],
  ["CC(=O)CC(=O)O [Acetoacetic acid]", 1.39],
  ["O[C@@H]1[C@@H](O)[C@@H]2OC[C@@H](O2)[C@H]1O [1,6-Anhydroglucose]", 2.25],
  ["O=C(O)CCO [3-Hydroxypropionic acid]", 0.55],
  ["O=C1O[C@H](CO)[C@@H](O)[C@H]1O [Ribonic acid lactone]", 1.33],
  ["O=C(O)C(O)Cc1ccccc1 (stereo not drawn) [3-Phenyllactic acid]", 0.68],
  ["OC[C@H]1O[C@@H](O[C@H]2[C@H](O)[C@@H](O)C(O)O[C@@H]2CO)[C@H](O)[C@@H](O)[C@H]1O (stereo partly drawn) [Lactose]", 1.60],
  ["Oc1ccccn1 [2-Hydroxypyridine]", 0.50],
  ["O=C(O)[C@@H]1CC(O)CN1 (stereo partly drawn) [4-Hydroxyproline]", 1.40],
  ["O=C(O)[C@@H](O)[C@H](O)CO [Threonic acid]", 0.56]
]}
